# Tgt: T1, IFF05588
# T1 chain: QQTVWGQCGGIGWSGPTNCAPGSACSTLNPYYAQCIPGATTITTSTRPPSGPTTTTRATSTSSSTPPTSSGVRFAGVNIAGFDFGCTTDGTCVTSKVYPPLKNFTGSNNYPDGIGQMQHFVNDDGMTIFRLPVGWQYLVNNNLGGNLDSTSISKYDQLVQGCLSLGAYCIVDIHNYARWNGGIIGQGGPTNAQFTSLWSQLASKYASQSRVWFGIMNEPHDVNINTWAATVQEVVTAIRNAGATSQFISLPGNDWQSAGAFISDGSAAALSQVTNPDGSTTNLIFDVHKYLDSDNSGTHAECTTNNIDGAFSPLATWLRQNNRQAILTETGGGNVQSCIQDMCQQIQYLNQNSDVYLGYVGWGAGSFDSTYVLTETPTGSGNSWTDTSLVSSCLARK
Property label: Relative late peak area (centered, scaled, averaged over 5, 10 and 15 min)
Output: the number by itself.

Reported Relative late peak area (centered, scaled, averaged over 5, 10 and 15 min) for IFF21361 (protein) DLLRPEIDTVFADGLGPLDQPLVDNLPLTSYTLNQWAPGWIPADCKAMIEGQNMSATEMTVWSVAYADCVDPWVMCQHPSAELNLTAMIDLFGRLPVKMRSLVRHLAAIPGRPWAYNSGTTGRISVFAHEVGHSMDYHGYFNDTRGQFSLSSLWLDNFAKDSGVADYYANTDQGENHSQEVVVALFDANVPGGLGSVTGNWSAILHQYATIQGFVGDGGDTLTPGGACSHRHNNSAAVPMTTEDAAQGPPPDVELTGPVHVYAFKPMEPVANATVVKEDGVAAPMVVKVF was -1.05
